Tested on: E. coli DH-5987
assay.name: Broth microdilution MIC/MBC
Format: cell-based, Escherichia coli
assay.setup: E. coli DH-5987; value in brackets
result.type: MBC/MIC
The response must contain the number and no unit.

Answered cases to consult:
- compound: "CCOC(=O)c1ccc(N=Nc2c(N)nn3c(-c4cccs4)cc(-c4ccccc4)nc23)cc1"
  MBC/MIC: 1
- compound: "CCOC(=O)c1ccc(N=Nc2c(N)nn3c2N=C(C)CC3=O)cc1"
  MBC/MIC: 0.5
- compound: "CCOC(=O)c1ccc(N=Nc2c(N)nn(C(O)=CC#N)c2N)cc1"
  MBC/MIC: 1
- compound: "CCOC(=O)c1ccc(N=Nc2c(N)nn3c(N)c(C#N)c(-c4ccc(N(C)C)cc4)nc23)cc1"
  MBC/MIC: 0.5
- compound: "CCOC(=O)c1ccc(N=Nc2c(N)nn3c(O)c(C#N)c(-c4ccc(Cl)cc4)nc23)cc1 [Compound 10b]"
  MBC/MIC: 0.5

Lookup result for CCOC(=O)c1ccc(N=Nc2c(N)nn(-c3ccccc3)c2N)cc1 ; measured MBC/MIC: 1

Lookup result for CCOC(=O)c1ccc(N=Nc2c(N)nn3c(-c4ccc(Cl)cc4)cc(-c4ccccc4)nc23)cc1 ; measured MBC/MIC: 2

Lookup result for CCOC(=O)c1ccc(N=Nc2c(N)n[nH]c2N)cc1 ; measured MBC/MIC: 0.5

Lookup result for CCOC(=O)c1ccc(N=Nc2c(N)nn3c(N)c(C#N)c(-c4ccc(Cl)cc4)nc23)cc1 ; measured MBC/MIC: 1

Lookup result for CCOC(=O)c1ccc(N=Nc2c(N)nn3c(N)c(C#N)c(-c4ccc(OC)cc4)nc23)cc1 ; measured MBC/MIC: 0.5

Lookup result for NCC[C@H](O)C(=O)N[C@@H]1C[C@H](N)[C@@H](O[C@H]2O[C@H](CN)[C@@H](O)[C@H](O)[C@H]2O)[C@H](O)[C@H]1O[C@H]1O[C@H](CO)[C@@H](O)[C@H](N)[C@H]1O [AK, Amikacin, reference compound] ; measured MBC/MIC: 4

Lookup result for CCOC(=O)c1ccc(N=Nc2c(N)nn3c(C)cc(C)nc23)cc1 ; measured MBC/MIC: 0.5

Lookup result for CCOC(=O)c1ccc(N=Nc2c(N=Cc3ccc(OC)cc3)n[nH]c2N)cc1 ; measured MBC/MIC: 0.5

Lookup result for CCOC(=O)c1ccc(N=Nc2c(N)nn3c(-c4ccco4)cc(-c4ccccc4)nc23)cc1 ; measured MBC/MIC: 1

Lookup result for CCOC(=O)c1ccc(N=Nc2c(N=Cc3ccc(N(C)C)cc3)n[nH]c2N)cc1 ; measured MBC/MIC: 0.5

Lookup result for CCOC(=O)c1ccc(N=Nc2c(N)nn(C(N)=S)c2N)cc1 ; measured MBC/MIC: 0.5

----------
Test system: S. pyogenes DH-3467
assay.name: Broth microdilution MIC/MBC
Assay type: cell-based, Streptococcus pyogenes
assay.setup: value in brackets
result.type: MBC/MIC
The response must contain the number and no unit.

Lookup result for CCOC(=O)c1ccc(N=Nc2c(N)nn(C(N)=S)c2N)cc1 ; measured MBC/MIC: 0.5

Lookup result for CCOC(=O)c1ccc(N=Nc2c(N)nn3c(O)c(C#N)c(-c4ccc(N(C)C)cc4)nc23)cc1 [Compound 10a] ; measured MBC/MIC: 0.5

Lookup result for CCOC(=O)c1ccc(N=Nc2c(N)nn3c(O)c(C#N)c(-c4ccc(Cl)cc4)nc23)cc1 [Compound 10b] ; measured MBC/MIC: 0.5

Lookup result for CCOC(=O)c1ccc(N=Nc2c(N)n[nH]c2N)cc1 ; measured MBC/MIC: 0.5

Lookup result for CCOC(=O)c1ccc(N=Nc2c(N)nn3c(N)c(C#N)c(-c4ccc(Cl)cc4)nc23)cc1 ; measured MBC/MIC: 1

Lookup result for CCOC(=O)c1ccc(N=Nc2c(N)nn3c(-c4ccco4)cc(-c4ccccc4)nc23)cc1 ; measured MBC/MIC: 1

----------
# MBC/MIC per record follows
Tested on: E. faecalis DH-5478
assay.name: Broth microdilution MIC/MBC
Format: cell-based, Enterococcus faecalis
assay.setup: value in brackets

Answered cases to consult:
- molecule: "CCOC(=O)c1ccc(N=Nc2c(N)nn3c(O)c(C#N)c(-c4ccc(Cl)cc4)nc23)cc1 [Compound 10b]"
  MBC/MIC: 1
- molecule: "CCOC(=O)c1ccc(N=Nc2c(N)nn(C(N)=S)c2N)cc1"
  MBC/MIC: 1
- molecule: "CCOC(=O)c1ccc(N=Nc2c(N)nn3c(N)c(C#N)c(-c4ccc(N(C)C)cc4)nc23)cc1"
  MBC/MIC: 0.5

Form: item CCOC(=O)c1ccc(N=Nc2c(N)n[nH]c2N)cc1 ; test system E. faecalis DH-5478; MBC/MIC: 0.5

Form: item CCOC(=O)c1ccc(N=Nc2c(N)nn3c(-c4ccco4)cc(-c4ccccc4)nc23)cc1 ; test system E. faecalis DH-5478; MBC/MIC: 2

Form: item CCOC(=O)c1ccc(N=Nc2c(N)nn3c(N)c(C#N)c(-c4ccc(OC)cc4)nc23)cc1 ; test system E. faecalis DH-5478; MBC/MIC: 1

Form: item CCOC(=O)c1ccc(N=Nc2c(N)nn3c(-c4cccs4)cc(-c4ccccc4)nc23)cc1 ; test system E. faecalis DH-5478; MBC/MIC: 1

Form: item CCOC(=O)c1ccc(N=Nc2c(N)nn3c(O)c(C#N)c(-c4ccc(N(C)C)cc4)nc23)cc1 [Compound 10a] ; test system E. faecalis DH-5478; MBC/MIC: 0.5

----------
E. faecalis DH-5478: reported MIC for various molecules.
Supply the numeric figure in µg/mL, leaving out any unit text.

- molecule: "CCOC(=O)c1ccc(N=Nc2c(N=Cc3ccc(OC)cc3)n[nH]c2N)cc1"
  MIC [µg/mL]: 1.5

Form: item CCOC(=O)c1ccc(N=Nc2c(N)nn3c(O)c(C#N)c(-c4ccc(Cl)cc4)nc23)cc1 [Compound 10b] ; test system E. faecalis DH-5478; MIC: 2

Form: item CCOC(=O)c1ccc(N=Nc2c(N)nn3c2N=C(C)CC3=O)cc1 ; test system E. faecalis DH-5478; MIC: 2

Form: item CCOC(=O)c1ccc(N=Nc2c(N)nn3c(C)cc(C)nc23)cc1 ; test system E. faecalis DH-5478; MIC: 0.375

Form: item CCOC(=O)c1ccc(N=Nc2c(N)nn(C(N)=S)c2N)cc1 ; test system E. faecalis DH-5478; MIC: 1

Form: item CCOC(=O)c1ccc(N=Nc2c(N)nn3c(-c4ccc(Cl)cc4)cc(-c4ccccc4)nc23)cc1 ; test system E. faecalis DH-5478; MIC: 8

Form: item CCOC(=O)c1ccc(N=Nc2c(N=Cc3ccc(N(C)C)cc3)n[nH]c2N)cc1 ; test system E. faecalis DH-5478; MIC: 0.5

Form: item CCOC(=O)c1ccc(N=Nc2c(N)nn3c(N)c(C#N)c(-c4ccc(N(C)C)cc4)nc23)cc1 ; test system E. faecalis DH-5478; MIC: 0.5

----------
# MBC/MIC per record follows
Test system: S. pyogenes DH-3467
assay.name: Broth microdilution MIC/MBC
Type: cell-based, Streptococcus pyogenes
assay.setup: value in brackets
The response must contain the number and no unit.

- molecule: "CCOC(=O)c1ccc(N=Nc2c(N=Cc3ccc(OC)cc3)n[nH]c2N)cc1 [Compound 5b]"
  result.type: "MBC/MIC"
  result.number: 1

Lookup result for CCOC(=O)c1ccc(N=Nc2c(N)nn3c2N=C(C)CC3=O)cc1 [Compound 7] ; measured MBC/MIC: 1

Lookup result for CCOC(=O)c1ccc(N=Nc2c(N)nn3c(-c4ccc(Cl)cc4)cc(-c4ccccc4)nc23)cc1 [Compound 8c] ; measured MBC/MIC: 2

Lookup result for CCOC(=O)c1ccc(N=Nc2c(N)nn(C(O)=CC#N)c2N)cc1 [Compound 4] ; measured MBC/MIC: 0.5

----------
# MBC/MIC per record follows
Tested on: S. pyogenes DH-3467
assay.name: Broth microdilution MIC/MBC
Assay type: cell-based, Streptococcus pyogenes
assay.setup: value in brackets
The response must contain the number and no unit.

Answered cases to consult:
- compound: "CC[C@H]1OC(=O)[C@H](C)[C@@H](O[C@H]2C[C@@](C)(OC)[C@@H](O)[C@H](C)O2)[C@H](C)[C@@H](O[C@@H]2O[C@H](C)C[C@H](N(C)C)[C@H]2O)[C@](C)(O)C[C@@H](C)C(=O)[C@H](C)[C@@H](O)[C@]1(C)O [E, Erythromycin, reference compound]"
  MBC/MIC: 2
- compound: "CCOC(=O)c1ccc(N=Nc2c(N)nn3c(-c4cccs4)cc(-c4ccccc4)nc23)cc1"
  MBC/MIC: 1

Lookup result for CCOC(=O)c1ccc(N=Nc2c(N)nn3c(N)c(C#N)c(-c4ccc(OC)cc4)nc23)cc1 ; measured MBC/MIC: 0.5

Lookup result for CCOC(=O)c1ccc(N=Nc2c(N)nn3c(N)c(C#N)c(-c4ccc(N(C)C)cc4)nc23)cc1 ; measured MBC/MIC: 0.5

Lookup result for CCOC(=O)c1ccc(N=Nc2c(N)nn(-c3ccccc3)c2N)cc1 ; measured MBC/MIC: 1

Lookup result for CCOC(=O)c1ccc(N=Nc2c(N)nn3c(C)cc(C)nc23)cc1 ; measured MBC/MIC: 0.5

Lookup result for CCOC(=O)c1ccc(N=Nc2c(N=Cc3ccc(N(C)C)cc3)n[nH]c2N)cc1 ; measured MBC/MIC: 0.5
